assay_system: RORγ (UniProt P51449)
protocol_notes: RORγ Gal4 Reporter Gene Assay in 293T cells (firefly and renilla luciferase)
Format: cell-based, human

[
  {
    "chem_smiles": "Cc1c(C(=O)NC2CSC2)cc(-c2cc(C(C)(C)C)cc(C(C)(C)C)c2)n1CC1CCCCC1",
    "pIC50 (FF)": "5.7/6.5/6.6"
  },
  {
    "chem_smiles": "Cc1c(C(=O)NC2CCOCC2)cc(-c2ccc(S(=O)(=O)NC(C)(C)C)c(OCC(C)(C)C)c2)n1CC1CCCCC1",
    "pIC50 (FF)": "5.3/6.5/6.9"
  },
  {
    "chem_smiles": "COC(C)(C)CNC(=O)c1cc(-c2cc(C(C)(C)C)cc(C3(C)CC3)c2)n(CC2CCCCC2)c1C",
    "pIC50 (FF)": "6.8/7.4/7.5"
  },
  {
    "chem_smiles": "Cc1c(C(=O)NC2CCOCC2)cc(-c2ccc(S(=O)(=O)NC(C)(C)CF)c(C(F)(F)F)c2)n1CC1CCCCC1",
    "pIC50 (FF)": "6.2/7.5/7.5"
  },
  {
    "chem_smiles": "COC(C)(C)CNC(=O)c1cc(-c2cc(C(C)(C)C)c3c(c2)C2(CCO3)CC2)n(CC2CCCCC2)c1C",
    "pIC50 (FF)": "6.6/7.1/7.0"
  },
  {
    "chem_smiles": "Cc1c(C(=O)NC2COC2)cc(-c2cc(C(=O)NC(C)(C)C)cc(C(F)(F)F)c2)n1CC1CCCCC1",
    "pIC50 (FF)": "6.3/6.9/6.9"
  },
  {
    "chem_smiles": "Cc1c(C(=O)NCCC(C)(C)C(N)=O)cc(-c2cc(C(C)(C)C)cc(C3(C)CC3)c2)n1CC1CCCCC1",
    "pIC50 (FF)": "6.3/7.3/7.2"
  }
]

###

assay_system: UniProt:P51449
Sequence (P51449 1-518): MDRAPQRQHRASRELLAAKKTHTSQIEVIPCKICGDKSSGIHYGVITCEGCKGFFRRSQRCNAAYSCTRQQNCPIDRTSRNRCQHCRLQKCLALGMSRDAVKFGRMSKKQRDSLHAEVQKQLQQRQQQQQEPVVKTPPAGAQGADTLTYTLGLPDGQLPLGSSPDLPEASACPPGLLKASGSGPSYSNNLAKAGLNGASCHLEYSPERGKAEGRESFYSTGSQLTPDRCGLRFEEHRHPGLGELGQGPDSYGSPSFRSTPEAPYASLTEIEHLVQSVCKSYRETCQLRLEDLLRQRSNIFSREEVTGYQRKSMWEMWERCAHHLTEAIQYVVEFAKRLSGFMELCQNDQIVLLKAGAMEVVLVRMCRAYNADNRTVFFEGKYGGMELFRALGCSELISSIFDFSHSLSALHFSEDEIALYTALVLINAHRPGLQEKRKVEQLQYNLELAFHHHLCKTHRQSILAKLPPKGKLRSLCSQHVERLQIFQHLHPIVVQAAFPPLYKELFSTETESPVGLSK
protocol_notes: RORγ Gal4 Reporter Gene Assay in 293T cells (firefly and renilla luciferase)
Assay type: cell-based, human

[
  {
    "chem_smiles": "Cc1c(C(=O)NC2CCOCC2)cc(-c2ccc(S(=O)(=O)NC(C)(C)C)c(C(C)(C)C)c2)n1CC1CCCC1",
    "pIC50 (REN)": "6.2/7.3/7.4"
  },
  {
    "chem_smiles": "COC(C)(C)c1cc(-c2cc(C(=O)NC3CCOCC3)c(C)n2CC2CCCCC2)cc2c1OCCC21CC1",
    "pIC50 (REN)": "5.6/7.1/7.2"
  },
  {
    "chem_smiles": "COC(C)(C)CNC(=O)c1cc(-c2cc(C(C)(C)C)cc(C3(C)CC3)c2)n(CC2CCCCC2)c1C",
    "pIC50 (REN)": "6.8/7.4/7.5"
  },
  {
    "chem_smiles": "COCCNC(=O)c1cc(-c2cc(C(C)(C)C)c(O)c(C(C)(C)C)c2)n(CC2CCCCC2)c1C",
    "pIC50 (REN)": "6.5/6.5/6.5"
  },
  {
    "chem_smiles": "CCN(C(C)(C)C)S(=O)(=O)c1ccc(-c2cc(C(=O)NC3CCOCC3)c(C)n2CC2CCCCC2)cc1C(F)(F)F",
    "pIC50 (REN)": "<4.7/7.4/7.5"
  },
  {
    "chem_smiles": "Cc1c(C(=O)NCC(C)(C)O)cc(-c2cc(C3(C)CC3)nc(C(C)(C)C)n2)n1CC1CCCCC1",
    "pIC50 (REN)": "6.5/6.6/6.6"
  },
  {
    "chem_smiles": "Cc1c(C(=O)NC2CCOCC2)cc(-c2ccc(C(N)=O)c(C(C)(C)C)c2)n1CC1CCCCC1",
    "pIC50 (REN)": "5.1/5.9/5.7"
  }
]

###

assay_system: RORγ ligand binding domain (LBD) (Homo sapiens, UniProt P51449)
Construct: made in house; host or cells: E. coli BL-21 (BL3), vector pDEST15
Sequence (P51449 269-508 limits assumed): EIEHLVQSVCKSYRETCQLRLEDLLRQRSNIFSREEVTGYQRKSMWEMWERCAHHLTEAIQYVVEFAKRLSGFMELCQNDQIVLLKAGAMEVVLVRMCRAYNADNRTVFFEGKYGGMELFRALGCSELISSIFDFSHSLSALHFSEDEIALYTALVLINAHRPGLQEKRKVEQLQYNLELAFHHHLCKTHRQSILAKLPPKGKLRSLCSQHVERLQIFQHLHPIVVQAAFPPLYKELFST
protocol_notes: TR-FRET Activity Assay (ligand sensing, RORγ-LBD / coactivator peptide interaction, LANCE)
Type: biochemical
measurement_conditions: first value of the cell FRET/FF/REN; TR-FRET activity assay; read-out: pIC50 (FRET) (converted)
reported_endpoint: IC50 (nM)

[
  {
    "compound": "Cc1c(C(=O)N[C@H]2C[C@@H](C(=O)O)C2)cc(-c2cc(C(C)(C)C)c3c(c2)C2(CCO3)CC2)n1CC1CCCCC1",
    "reported_endpoint": "IC50",
    "unit_annotation": "nM",
    "assay_result": 12600
  },
  {
    "compound": "Cc1c(C(=O)NCCC(C)(C)C(=O)O)cc(-c2ccc(S(=O)(=O)N[C@@H](C)C(F)(F)F)c(C(F)(F)F)c2)n1CC1CCCCC1",
    "reported_endpoint": "IC50",
    "unit_annotation": "nM",
    "assay_result": 501
  },
  {
    "compound": "Cc1c(C(=O)NC2CCOCC2)cc(-c2ccc(S(=O)(=O)NC(C)(C)C)c(C(C)C)c2)n1CC1CCCCC1",
    "reported_endpoint": "IC50",
    "unit_annotation": "nM",
    "assay_result": 316
  },
  {
    "compound": "Cc1c(C(=O)NC2CCOCC2)cc(-c2cc(C(F)(F)F)cc(C3(C)CC3)c2)n1CC1CCCCC1",
    "reported_endpoint": "IC50",
    "unit_annotation": "nM",
    "assay_result": 126
  },
  {
    "compound": "Cc1c(C(=O)NCC(C)(C)C(=O)O)cc(-c2ccc(S(=O)(=O)NC(C)(C)C)c(OC(F)(F)F)c2)n1CC1CCCCC1",
    "reported_endpoint": "IC50",
    "unit_annotation": "nM",
    "assay_result": 316
  },
  {
    "compound": "Cc1c(S(=O)(=O)NC(C)(C)C)ccc(-c2cc(C(=O)NCC(C)(C)C(N)=O)c(C)n2CC2CCCCC2)c1Cl",
    "reported_endpoint": "IC50",
    "unit_annotation": "nM",
    "assay_result": 631
  },
  {
    "compound": "Cc1c(C(=O)NC2CCOCC2)cc(-c2ccc(S(=O)(=O)NC(C)(C)C)c(C(F)(F)F)c2)n1CC1CCCC1",
    "reported_endpoint": "IC50",
    "unit_annotation": "nM",
    "assay_result": 251
  },
  {
    "compound": "Cc1c(C(=O)NC2COC2)cc(-c2cnc(OCC(C)(C)C)c(C(F)(F)F)c2)n1CC1CCCCC1",
    "reported_endpoint": "IC50",
    "unit_annotation": "nM",
    "assay_result": 1000
  },
  {
    "compound": "COCCNC(=O)c1cc(-c2cc(C(C)(C)C)cc(C(C)(C)C)c2)n(CC2CCCCC2)c1C",
    "reported_endpoint": "IC50",
    "unit_annotation": "nM",
    "assay_result": 316
  },
  {
    "compound": "Cc1c(C(=O)NC2CCOCC2)cc(-c2cc(Cl)c(S(N)(=O)=O)c(C(F)(F)F)c2)n1CC1CCCCC1",
    "reported_endpoint": "IC50",
    "unit_annotation": "nM",
    "assay_result": 501
  },
  {
    "compound": "Cc1c(C(=O)NC2CCNC(=O)C2)cc(-c2ccc(S(=O)(=O)NC(C)(C)C)c(C(C)(C)C)c2)n1CC1CCCCC1 (centres unmarked)",
    "reported_endpoint": "IC50",
    "unit_annotation": "nM",
    "assay_result": 1580
  },
  {
    "compound": "CC(C)(CCNC(=O)c1cc(-c2cc(C(C)(C)C)cc(C3(C)CC3)c2)n(CC2CCCCC2)c1F)C(=O)O",
    "reported_endpoint": "IC50",
    "unit_annotation": "nM",
    "assay_result": 794
  },
  {
    "compound": "Cc1c(C(=O)NC2COC2)cc(C2=NN(C(=O)C3CCCCC3)C3(CCCCC3)C2)n1CC1CCCCC1",
    "reported_endpoint": "IC50",
    "unit_annotation": "nM",
    "assay_result": 6310
  },
  {
    "compound": "Cc1c(C(=O)NC2CCOCC2)cc(-c2ccc(S(N)(=O)=O)c(C(F)(F)F)c2)n1CC1CCCCC1",
    "reported_endpoint": "IC50",
    "unit_annotation": "nM",
    "assay_result": 12600
  },
  {
    "compound": "Cc1c(C(=O)NCC2(O)CCS(=O)(=O)CC2)cc(-c2cc(C(C)(C)O)cc(C3(C)CC3)c2)n1CC1CCCCC1",
    "reported_endpoint": "IC50",
    "unit_annotation": "nM",
    "assay_result": 2000
  },
  {
    "compound": "Cc1c(C(=O)NCC(C)(C)C(=O)O)cc(-c2ccc(S(=O)(=O)NC(C)(C)C)c(C(F)(F)F)c2)n1CC1CCCCC1",
    "reported_endpoint": "IC50",
    "unit_annotation": "nM",
    "assay_result": 501
  },
  {
    "compound": "CCCNS(=O)(=O)c1ccc(-c2cc(C(=O)NC3CCOCC3)c(C)n2CC2CCCCC2)cc1C(F)(F)F",
    "reported_endpoint": "IC50",
    "unit_annotation": "nM",
    "assay_result": 316
  },
  {
    "compound": "Cc1c(C(=O)NC2SC(=O)NC2=O)cc(-c2cc(C(C)(C)C)c3c(c2)C2(CCO3)CC2)n1CC1CCCCC1 (centres unmarked)",
    "reported_endpoint": "IC50",
    "unit_annotation": "nM",
    "assay_result": 3160
  },
  {
    "compound": "Cc1c(C(=O)NC[C@H](C)O)cc(-c2cc(C(C)(C)C)cc(C(C)(C)C)c2)n1CC1CCCCC1",
    "reported_endpoint": "IC50",
    "unit_annotation": "nM",
    "assay_result": 1000
  },
  {
    "compound": "Cc1c(C(=O)NCCC(=O)O)cc(-c2cc(C(C)(C)C)cc(C(C)(C)C)c2)n1CC1CCCCC1",
    "reported_endpoint": "IC50",
    "unit_annotation": "nM",
    "assay_result": 1580
  },
  {
    "compound": "CNC(=O)C(C)(C)CNC(=O)c1cc(-c2ccc(S(=O)(=O)NC(C)(C)C)c(C(F)(F)F)c2)n(CC2CCCCC2)c1C",
    "reported_endpoint": "IC50",
    "unit_annotation": "nM",
    "assay_result": 794
  },
  {
    "compound": "Cc1c(C(=O)N2CCC(C)(O)CC2)cc(-c2ccc(S(=O)(=O)NC(C)(C)C)c(C(C)(C)C)c2)n1CC1CCCCC1",
    "reported_endpoint": "IC50",
    "unit_annotation": "nM",
    "assay_result": 1000
  },
  {
    "compound": "Cc1c(C(=O)NCC2COC2)cc(-c2cc(C(C)(C)C)cc(C(C)(C)C)c2)n1CC1CCCCC1",
    "reported_endpoint": "IC50",
    "unit_annotation": "nM",
    "assay_result": 200
  },
  {
    "compound": "Cc1c(C(=O)NCC(C)(C)C(=O)NCCC(=O)O)cc(-c2cc(C(C)(C)C)c3c(c2)C2(CCO3)CC2)n1CC1CCCCC1",
    "reported_endpoint": "IC50",
    "unit_annotation": "nM",
    "assay_result": 1000
  },
  {
    "compound": "Cc1c(C(=O)NC2COC2)cc(-c2ccc(S(=O)(=O)NC(C)(C)C)c(C(C)(C)C)c2)n1CC1CCCCC1",
    "reported_endpoint": "IC50",
    "unit_annotation": "nM",
    "assay_result": 631
  },
  {
    "compound": "Cc1c(C(=O)NC2CCOCC2)cc(-c2ccc(S(=O)(=O)NC3(C)COC3)c(C(F)(F)F)c2)n1CC1CCCCC1",
    "reported_endpoint": "IC50",
    "unit_annotation": "nM",
    "assay_result": 631
  },
  {
    "compound": "Cc1c(C(=O)NCCc2noc(=O)[nH]2)cc(-c2ccc(S(=O)(=O)NC(C)(C)C)c(C(C)(C)O)c2)n1CC1CCCCC1",
    "reported_endpoint": "IC50",
    "unit_annotation": "nM",
    "assay_result": 398
  },
  {
    "compound": "Cc1c(C(=O)NC2CCOCC2)cc(-c2cc(C(C)(C)O)cc(C(F)(F)F)c2)n1CC1CCCCC1",
    "reported_endpoint": "IC50",
    "unit_annotation": "nM",
    "assay_result": 1580
  },
  {
    "compound": "Cc1c(C(=O)NC2CCOCC2)cc(-c2ccc(CN3CCOCC3)c(C(F)(F)F)c2)n1CC1CCCCC1",
    "reported_endpoint": "IC50",
    "unit_annotation": "nM",
    "assay_result": 3160
  }
]
